Tested on: OVCAR-3
Assay: NCI tumour cell line growth inhibition, 48 h
Active and inactive are the calls of the source. No stated cut-off is given here; in the data, active = GI50 up to about 1.1 µM and inactive = higher.
measured attribute: GI50

Use these answered entries as a reference point.
{"columns": ["molecule", "measured attribute", "observed measurement"],
 "data": [
  ["O=C(c1cccnc1)N1N=C(c2ccc3c(c2)OCO3)CC1(O)c1cc(F)c(Cl)cc1Cl (stereo not drawn)", "GI50", "11 µM (inactive)"],
  ["CCOc1ccc(/N=C\\c2cc(OC)c(OC)c(OC)c2)cc1", "GI50", "> 100 µM (inactive)"]
]}

Next, consider the following molecule.
Sure, the documented GI50 for Cn1nnc2c(C(N)=O)ncn2c1=O [TEMOZOLOMIDE] is > 100 µM (inactive)
